tgt: ITK (Homo sapiens)
Sequence (Q08881 whole entry): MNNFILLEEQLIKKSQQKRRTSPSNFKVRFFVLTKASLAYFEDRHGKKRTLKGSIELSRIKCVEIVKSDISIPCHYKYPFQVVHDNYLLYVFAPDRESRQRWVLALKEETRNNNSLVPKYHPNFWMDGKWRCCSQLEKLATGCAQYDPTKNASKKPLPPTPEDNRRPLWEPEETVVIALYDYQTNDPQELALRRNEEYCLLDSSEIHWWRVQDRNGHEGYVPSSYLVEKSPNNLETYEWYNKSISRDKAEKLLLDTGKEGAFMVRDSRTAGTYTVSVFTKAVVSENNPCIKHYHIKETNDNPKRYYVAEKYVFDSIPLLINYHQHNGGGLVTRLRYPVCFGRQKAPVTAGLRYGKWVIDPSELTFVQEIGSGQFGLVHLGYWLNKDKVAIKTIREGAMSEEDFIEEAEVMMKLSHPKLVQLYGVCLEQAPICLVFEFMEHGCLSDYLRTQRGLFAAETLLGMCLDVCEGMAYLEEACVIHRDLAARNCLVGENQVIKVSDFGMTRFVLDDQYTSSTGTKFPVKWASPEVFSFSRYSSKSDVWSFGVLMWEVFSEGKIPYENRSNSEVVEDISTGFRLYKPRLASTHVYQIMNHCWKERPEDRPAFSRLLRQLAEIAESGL
run-description: Inhibition of a panel of kinases, in vitro HotSpot kinase assay: ITK
Assay type: biochemical
conditions: E compounds, Table 17
pIC50: −log10 of the molar value.
measurement-name: pIC50

{"structure-smiles": "C=CC(=O)N1CCC[C@@H](N(C(=O)C=C)c2nnc(C(N)=O)c(Nc3ccc(C4(C#N)CC4)cc3)n2)C1", "pIC50": "6.00 to 7.00"}
{"structure-smiles": "C=CC(=O)N1CCC[C@@H](N(C)c2cnc(C(N)=O)c(Nc3ccc(C4CCN(C5CCCC5)CC4)cc3)n2)C1", "pIC50": "≥ 8.00"}
{"structure-smiles": "C=CC(=O)N[C@@H]1CCCC[C@H]1Nc1nnc(C(N)=O)c(Nc2ccc(C(C)C)cc2)n1", "pIC50": "6.00 to 7.00"}

Shifting focus to the compound that follows.
Known value: ITK (Homo sapiens) pIC50 of the compound C=CC(=O)N1CCC[C@H](Nc2nnc(C(N)=O)c(Nc3ccc(C(C)(C)C)cc3)n2)C1 equals 7.00 to 8.00

----------
tgt: SRC (Homo sapiens)
Sequence (P12931 whole entry): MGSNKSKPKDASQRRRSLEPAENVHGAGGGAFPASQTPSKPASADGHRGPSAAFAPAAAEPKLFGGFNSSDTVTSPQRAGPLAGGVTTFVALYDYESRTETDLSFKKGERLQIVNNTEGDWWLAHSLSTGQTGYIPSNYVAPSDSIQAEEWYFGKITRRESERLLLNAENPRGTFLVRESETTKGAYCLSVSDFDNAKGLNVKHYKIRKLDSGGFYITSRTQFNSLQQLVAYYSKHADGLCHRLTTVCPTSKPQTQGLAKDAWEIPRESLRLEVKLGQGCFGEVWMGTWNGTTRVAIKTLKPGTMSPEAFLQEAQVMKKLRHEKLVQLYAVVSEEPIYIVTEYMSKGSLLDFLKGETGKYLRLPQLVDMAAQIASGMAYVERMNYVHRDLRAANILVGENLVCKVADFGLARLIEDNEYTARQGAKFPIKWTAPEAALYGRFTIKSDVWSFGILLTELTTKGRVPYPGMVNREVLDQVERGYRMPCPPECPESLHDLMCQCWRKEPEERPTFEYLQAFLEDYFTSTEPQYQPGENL
run-description: Inhibition of a panel of kinases, in vitro HotSpot kinase assay: SRC
Format: biochemical
conditions: Table 15, C compounds; 1 μM ATP
measurement-name: IC50

A selection of reference data follows.
{"compound": "C=CC(=O)N1CCC[C@@H](N(C)c2cnc(C(N)=O)c(Nc3ccc(C4(C)CCN(C5CCCC5)CC4)cc3)n2)C1 [Example C-44]", "tgt": "SRC (Homo sapiens)", "IC50": "≤ 10 nM"}
{"compound": "C=CC(=O)N1CCC[C@@H](Nc2nnc(C(N)=O)c(Nc3ccc(C4CCN(C(=O)CC)CC4)cc3)n2)C1 [Example C-57]", "tgt": "SRC (Homo sapiens)", "IC50": "10 to 100 nM"}
{"compound": "C=CC(=O)N1CCC[C@@H](N(C)c2cnc(C(N)=O)c(Nc3ccc(C(C)C)cc3)n2)C1 [Example C-42]", "tgt": "SRC (Homo sapiens)", "IC50": "100 to 1000 nM"}
{"compound": "C=CC(=O)N1CC[C@@H](N(C)c2nnc(C(N)=O)c(Nc3ccc(C(C)C)cc3)n2)C1 [Example C-41]", "tgt": "SRC (Homo sapiens)", "IC50": "10 to 100 nM"}
{"compound": "C=CC(=O)N1CCC[C@@H](Nc2cnc(C(N)=O)c(Nc3ccc(C4CCN(C5CCCC5)CC4)cc3)n2)C1 [Example C-84]", "tgt": "SRC (Homo sapiens)", "IC50": "10 to 100 nM"}

Record C=CC(=O)N1CCC[C@@H](Nc2nnc(C(N)=O)c(Nc3cc(C)ns3)n2)C1 [Example C-56] . Reported IC50: 10 to 100 nM

Record C=CC(=O)N1CC[C@@H](N(C)c2cnc(C(N)=O)c(Nc3ccc(C4CCN(C5CCCC5)CC4)cc3)n2)C1 [Example C-85] . Reported IC50: 10 to 100 nM

----------
tgt: TEC (Homo sapiens, UniProt P42680)
Sequence (P42680 whole entry): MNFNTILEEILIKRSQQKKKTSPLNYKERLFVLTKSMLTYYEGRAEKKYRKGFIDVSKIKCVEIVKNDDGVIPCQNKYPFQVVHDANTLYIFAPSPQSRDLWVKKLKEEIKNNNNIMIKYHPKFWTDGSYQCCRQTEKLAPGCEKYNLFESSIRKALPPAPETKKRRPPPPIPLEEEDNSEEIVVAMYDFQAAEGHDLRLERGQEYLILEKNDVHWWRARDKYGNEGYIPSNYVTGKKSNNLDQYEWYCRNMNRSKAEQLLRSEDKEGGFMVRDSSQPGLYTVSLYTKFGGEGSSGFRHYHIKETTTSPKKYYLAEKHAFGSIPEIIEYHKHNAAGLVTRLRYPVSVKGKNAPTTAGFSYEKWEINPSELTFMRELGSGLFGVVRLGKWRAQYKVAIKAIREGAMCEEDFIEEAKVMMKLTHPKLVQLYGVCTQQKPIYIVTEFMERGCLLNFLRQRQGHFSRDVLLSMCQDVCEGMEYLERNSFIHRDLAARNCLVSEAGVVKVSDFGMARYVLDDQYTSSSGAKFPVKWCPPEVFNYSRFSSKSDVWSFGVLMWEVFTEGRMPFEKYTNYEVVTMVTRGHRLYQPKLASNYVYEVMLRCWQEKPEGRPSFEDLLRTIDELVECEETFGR
run-description: Inhibition of a panel of kinases, in vitro HotSpot kinase assay: TEC
Format: biochemical
conditions: D-compounds panel data; 1 μM ATP
Listing: IC50 of selected molecules

Record C[C@@H]1[C@H](NC(=O)c2ccc(C(C)(C)N(C)C)cc2)CCCN1c1cnc(C(N)=O)c(Nc2cnn(C)c2)n1 [Example D-108] . Reported IC50: 10 to 100 nM

Record C[C@@H]1C[C@H](NC(=O)c2ccc(C3CC3)cc2)CN(c2cnc(C(N)=O)c(Nc3cnn(C)c3)n2)C1 [Example D-32] . Reported IC50: 100 to 1000 nM

Record Cc1c(Nc2nc(N3CCC[C@@H](NC(=O)c4ccc(C5CC5)cc4)[C@H]3C)cnc2C(N)=O)cnn1C [Example D-271] . Reported IC50: 1000 to 10000 nM

Record C[C@@H]1[C@H](N2CCN(C)C2=O)CCCN1c1cnc(C(N)=O)c(Nc2cnn(C)c2)n1 [Example D-93] . Reported IC50: 10 to 100 nM

Record C[C@@H]1[C@H](NC(=O)c2ccc3[nH]cnc3c2)CCCN1c1cnc(C(N)=O)c(Nc2cnn(C)c2)n1 [Example D-262] . Reported IC50: ≤ 10 nM

Record C[C@@H]1[C@H](N2CCN(C)C2=O)CCCN1c1cnc(C(N)=O)c(Nc2ccc(C3(C)CCN(C4CC4)CC3)cc2)n1 [Example D-38] . Reported IC50: 10 to 100 nM

----------
Listing: IC50 of selected compounds
tgt: BTK-WT (Homo sapiens)
Construct: purified from insect cells as a full-length construct containing an N-terminal 6X-His tag; His6 (N); made in house; host or cells: insect cells (baculovirus Sf21 in Method B)
Sequence (Q06187 whole entry): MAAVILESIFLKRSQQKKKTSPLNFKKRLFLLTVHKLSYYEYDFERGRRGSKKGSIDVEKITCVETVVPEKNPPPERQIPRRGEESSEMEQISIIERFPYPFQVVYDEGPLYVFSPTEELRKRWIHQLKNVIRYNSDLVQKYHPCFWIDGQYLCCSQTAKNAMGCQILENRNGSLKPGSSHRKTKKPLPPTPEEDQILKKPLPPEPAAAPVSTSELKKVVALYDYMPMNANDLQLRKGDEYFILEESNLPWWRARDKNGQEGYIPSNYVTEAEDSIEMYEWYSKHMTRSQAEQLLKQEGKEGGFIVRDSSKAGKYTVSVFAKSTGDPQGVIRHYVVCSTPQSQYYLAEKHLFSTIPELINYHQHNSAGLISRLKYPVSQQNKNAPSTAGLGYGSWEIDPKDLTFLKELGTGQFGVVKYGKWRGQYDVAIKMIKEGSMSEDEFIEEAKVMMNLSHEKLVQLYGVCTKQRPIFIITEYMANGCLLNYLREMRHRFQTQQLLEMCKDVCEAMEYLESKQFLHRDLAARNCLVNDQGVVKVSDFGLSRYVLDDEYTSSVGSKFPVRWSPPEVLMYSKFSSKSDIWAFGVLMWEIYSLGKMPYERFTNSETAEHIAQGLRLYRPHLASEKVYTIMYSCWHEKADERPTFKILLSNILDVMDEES
run-description: Btk in vitro inhibitory activity (one of Method A TR-FRET, Method B electrophoretic mobility shift, Method C radiometric filter binding)
Type: biochemical
conditions: D-compounds panel data; read-out: IC50 BTK-WT

A selection of reference data follows.
{"compound": "C[C@@H]1[C@H](NC(=O)c2ccc(N(C)C)cc2)CCCN1c1cnc(C(N)=O)c(Nc2ccc(N3CCN(C)CC3)cc2)n1", "IC50": "≤ 10 nM"}
{"compound": "C[C@@H]1[C@H](NC(=O)c2ccc(C3CC3)cc2)CCCN1c1cnc(C(N)=O)c(Nc2cnn(C)c2F)n1", "IC50": "10 to 100 nM"}
{"compound": "Cn1cc(Nc2nc(N3CCC(NC(=O)c4ccc(C5CC5)cc4)C(O)C3)cnc2C(N)=O)cn1 (single isomer, unassigned) [Example D-29]", "IC50": "100 to 1000 nM"}
{"compound": "C[C@@H]1[C@H](NC(=O)c2ccc(C3CC3)cc2F)CCCN1c1cnc(C(N)=O)c(Nc2ccc(N3CCN(C)CC3=O)cc2)n1", "IC50": "≤ 10 nM"}
{"compound": "C[C@@H]1[C@H](NC(=O)c2ccc3c(cnn3C)c2)CCCN1c1cnc(C(N)=O)c(Nc2cnn(C)c2)n1", "IC50": "≤ 10 nM"}
{"compound": "C[C@@H]1[C@H](NC(=O)c2ccc(C(C)(C)C)cc2F)CCCN1c1cnc(C(N)=O)c(Nc2cnn(C)c2)n1", "IC50": "≤ 10 nM"}
{"compound": "Cc1cc(Nc2nc(N3C[C@@H](NC(=O)N(C)C)CC[C@@H]3C)cnc2C(N)=O)sn1", "IC50": "100 to 1000 nM"}
{"compound": "C[C@H]1CC[C@@H](NC(=O)N(C)C)CN1c1cnc(C(N)=O)c(Nc2cnn(C)c2)n1", "IC50": "10 to 100 nM"}
{"compound": "C[C@@H]1[C@H](NC(=O)c2ccc(C3CC3)cc2F)CCCN1c1cnc(C(N)=O)c(Nc2ccc(N3CCOCC3)cc2)n1", "IC50": "≤ 10 nM"}
{"compound": "CC(=O)NC(C)(C)c1ccc(C(=O)N[C@@H]2CCCN(c3cnc(C(N)=O)c(Nc4cnn(C)c4)n3)[C@@H]2C)cc1", "IC50": "≤ 10 nM"}

Record C[C@@H]1[C@H](NC(=O)c2ccc(C3CC3)cc2F)CCCN1c1cnc(C(N)=O)c(Nc2ccc(S(=O)(=O)N3CCCC3)cc2)n1 . Reported IC50: ≤ 10 nM

Record C[C@@H]1[C@H](NC(=O)N(C)C)CCCN1c1cnc(C(N)=O)c(Nc2ccc(OC3CCN(C)CC3)cc2)n1 . Reported IC50: ≤ 10 nM

Record C[C@@H]1[C@H](NC(=O)c2ccc(C3CC3)cc2F)CCCN1c1cnc(C(N)=O)c(Nc2ccc(N3CCN(C)CC3)c(F)c2)n1 . Reported IC50: ≤ 10 nM

----------
tgt: TEC (Homo sapiens)
run-description: Inhibition of a panel of kinases, in vitro HotSpot kinase assay: TEC
Assay type: biochemical
conditions: D-compounds panel data; 1 μM ATP
pIC50: −log10 of the molar value.
Listing: pIC50 of selected compounds

Record C[C@@H]1[C@H](NC(=O)c2ccc(C3CC3)cc2F)CCCN1c1cnc(C(N)=O)c(Nc2ccc(N3CCN(C)CC3)c(F)c2)n1 . Reported pIC50: 7.00 to 8.00

Record C[C@@H]1[C@H](NC(=O)c2ccc(C(F)(F)F)cn2)CCCN1c1cnc(C(N)=O)c(Nc2cnn(C)c2)n1 . Reported pIC50: 7.00 to 8.00

Record C[C@@H]1[C@H](NC(=O)c2ccc(C3CC3)cc2F)CCCN1c1cnc(C(N)=O)c(Nc2ccn(C)n2)n1 . Reported pIC50: < 5.00

Record C[C@@H]1[C@H](NC(=O)c2ccc(C3CC3)cc2)CCCN1c1cnc(C(N)=O)c(Nc2cnn(C)c2C(F)(F)F)n1 . Reported pIC50: < 5.00

Record C[C@@H]1[C@H](NC(=O)c2ccc(C3CC3)cc2)CCCN1c1cnc(C(N)=O)c(Nc2ccc(OC3CCN4CCCC4C3)cc2)n1 (stereo partly shown) . Reported pIC50: ≥ 8.00

Record C[C@@H]1C[C@@H](NC(=O)c2ccc(C3CC3)cc2)CN(c2cnc(C(N)=O)c(Nc3cnn(C)c3)n2)C1 . Reported pIC50: 6.00 to 7.00

Record Cc1cc(Nc2nc(N3C[C@@H](NC(=O)c4ccc(C5CC5)cc4F)CC[C@H]3C)cnc2C(N)=O)sn1 . Reported pIC50: 5.00 to 6.00
